Molecular target: T1, Msi3, the sole Hsp110 of Candida albicans (Candida albicans, UniProt Q96VB9 1-701)
T1 chain: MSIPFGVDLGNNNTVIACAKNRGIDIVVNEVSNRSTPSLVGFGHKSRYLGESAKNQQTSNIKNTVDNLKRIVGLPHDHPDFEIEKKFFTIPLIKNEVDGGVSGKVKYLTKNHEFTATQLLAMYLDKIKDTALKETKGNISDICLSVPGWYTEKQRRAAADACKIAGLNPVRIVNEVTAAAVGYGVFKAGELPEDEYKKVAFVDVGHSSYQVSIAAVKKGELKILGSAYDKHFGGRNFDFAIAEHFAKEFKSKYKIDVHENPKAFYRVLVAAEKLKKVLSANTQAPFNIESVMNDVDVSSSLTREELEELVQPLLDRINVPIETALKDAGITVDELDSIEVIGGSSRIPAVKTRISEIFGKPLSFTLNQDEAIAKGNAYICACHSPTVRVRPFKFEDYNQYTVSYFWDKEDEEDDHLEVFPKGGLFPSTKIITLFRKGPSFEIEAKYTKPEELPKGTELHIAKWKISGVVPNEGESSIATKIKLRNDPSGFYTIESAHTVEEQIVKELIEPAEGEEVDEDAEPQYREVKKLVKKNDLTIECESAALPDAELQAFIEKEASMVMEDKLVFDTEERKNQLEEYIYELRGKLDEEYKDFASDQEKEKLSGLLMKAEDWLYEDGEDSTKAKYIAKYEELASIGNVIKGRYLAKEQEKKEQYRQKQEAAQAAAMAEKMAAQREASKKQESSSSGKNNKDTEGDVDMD
Assay: FP
pKd: −log10 of the molar value. Where no end group is shown, it is not given here.
Measurement name: pKd

In [3]: df
Out[3]:
                                     binder  test_value
0  fluorescein-VYDFFVWL [TRP2-181 peptide labeled with a fluorescein at the N-terminus]        6.19
